test_system: T1, Human hepcidin peptide (hepcidin-25) (human)
T1 construct: Synthetic 25 aa peptide; also called hep-25; Hep-25
T1 peptide: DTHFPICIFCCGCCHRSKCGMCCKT
protocol: titration affinity ELISA, hepcidin 100 ng/well on Nunc Immobilizer Amino plate; antibody 0 ng/ml (blank)

{"binder": "BAP070-hum04 (antibody, V domains shown, Expressed as soluble IgG1 in CHO cells, tested as supernatant; The entries stop inside FR4) VH: QVQLVQSGAEVKKPGASVKVSCKASGYTFTNYGMNWVRQARGQRLEWIGWINTYTGEPTYADDFKGRLTISKDTSKNQVVLTMTNMDPVDTATYYCTTYATSWYWGQG VL: AIQLTQSPSSLSASVGDRVTITCRASESVDSYGNSFMHWFQQRPGQSPRRLIYRASNLESGIPPRFSGSGYGTDFTLTINNIESEDAAYYFCQQSNEDLTFG", "unit_descriptor": "OD450", "OD 450 nm": 0.045}

Sourced from patent US20170247448A1
